Study Target: humanized farnesyl pyrophosphate synthase (HsFPPS) (Homo sapiens (Human), UniProt P14324)
Sequence (P14324 whole entry, looked up): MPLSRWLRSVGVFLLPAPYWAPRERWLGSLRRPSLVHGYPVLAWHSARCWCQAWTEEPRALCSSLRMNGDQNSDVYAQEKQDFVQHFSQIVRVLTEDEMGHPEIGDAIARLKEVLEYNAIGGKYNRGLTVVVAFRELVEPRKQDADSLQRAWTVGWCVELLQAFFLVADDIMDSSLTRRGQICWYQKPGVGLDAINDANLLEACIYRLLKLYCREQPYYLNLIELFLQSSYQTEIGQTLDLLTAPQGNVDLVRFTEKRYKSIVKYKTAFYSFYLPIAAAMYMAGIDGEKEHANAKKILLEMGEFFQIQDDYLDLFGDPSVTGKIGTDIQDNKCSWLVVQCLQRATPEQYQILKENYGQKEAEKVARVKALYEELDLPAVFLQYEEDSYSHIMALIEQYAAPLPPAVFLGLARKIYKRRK
Protocol Text: In vitro HsFPPS enzyme activity assay
Assay type: biochemical
Property: IC50 (nM)
One number for each entry, in nM.

Task: Please report the recorded IC50 for CCCCCCOc1ccn2c(CC(O)(P(=O)(O)O)P(=O)(O)O)cnc2c1 [TH-Z97] .
Result: 60
